# subject_of_test: UniProtKB P00533
# Sequence (P00533 whole entry, looked up): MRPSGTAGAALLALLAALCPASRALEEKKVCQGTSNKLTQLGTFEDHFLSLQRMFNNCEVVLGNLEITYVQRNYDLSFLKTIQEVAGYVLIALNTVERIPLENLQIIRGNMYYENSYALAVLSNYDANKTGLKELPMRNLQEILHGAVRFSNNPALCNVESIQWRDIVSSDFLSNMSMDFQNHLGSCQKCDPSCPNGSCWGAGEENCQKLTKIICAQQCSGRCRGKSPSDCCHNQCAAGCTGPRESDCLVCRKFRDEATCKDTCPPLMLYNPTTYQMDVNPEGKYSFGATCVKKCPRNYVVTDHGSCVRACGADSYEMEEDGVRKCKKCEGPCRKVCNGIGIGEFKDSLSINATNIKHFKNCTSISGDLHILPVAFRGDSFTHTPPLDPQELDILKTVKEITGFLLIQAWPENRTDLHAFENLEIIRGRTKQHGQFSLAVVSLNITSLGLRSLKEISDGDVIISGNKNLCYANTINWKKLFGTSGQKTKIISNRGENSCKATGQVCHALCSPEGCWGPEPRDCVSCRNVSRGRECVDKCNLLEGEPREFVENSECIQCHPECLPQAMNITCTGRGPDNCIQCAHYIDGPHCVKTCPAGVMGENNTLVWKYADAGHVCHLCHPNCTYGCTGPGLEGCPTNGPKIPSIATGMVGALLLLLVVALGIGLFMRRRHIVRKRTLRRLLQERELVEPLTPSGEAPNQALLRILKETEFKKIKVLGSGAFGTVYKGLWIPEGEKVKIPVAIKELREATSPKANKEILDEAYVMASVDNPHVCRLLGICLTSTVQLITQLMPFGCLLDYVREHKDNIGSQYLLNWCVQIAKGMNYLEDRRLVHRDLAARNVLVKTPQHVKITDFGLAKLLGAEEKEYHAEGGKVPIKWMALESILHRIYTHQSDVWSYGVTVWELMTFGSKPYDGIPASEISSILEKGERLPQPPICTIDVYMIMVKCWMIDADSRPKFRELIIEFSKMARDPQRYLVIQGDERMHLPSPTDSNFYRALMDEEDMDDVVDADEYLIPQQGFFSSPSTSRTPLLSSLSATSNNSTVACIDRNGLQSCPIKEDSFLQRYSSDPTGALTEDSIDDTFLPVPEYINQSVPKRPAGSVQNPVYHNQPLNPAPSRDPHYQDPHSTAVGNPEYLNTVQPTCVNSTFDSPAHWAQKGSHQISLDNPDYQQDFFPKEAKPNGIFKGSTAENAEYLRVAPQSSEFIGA
pIC50: −log10 of the molar value.

{"columns": ["test_smiles", "pIC50"],
 "data": [
  ["COc1cc2ncnc(Nc3ccc(F)c(Cl)c3)c2cc1OCC(=O)NO", "≥ 7.00"],
  ["C[C@@H](Nc1ncnc2[nH]c(-c3ccc(NC(=O)CCNCCCCCCC(=O)NO)cc3)cc12)c1ccccc1", "≥ 7.00"],
  ["COc1cc2ncnc(Nc3ccc(F)c(Cl)c3)c2cc1CCCCCC(=O)NO", "≥ 7.00"],
  ["O=C(CCCCCCOc1ccc2ncnc(Nc3ccc(OCc4cccc(F)c4)c(Cl)c3)c2c1)NO", "≥ 7.00"],
  ["C#Cc1cccc(Nc2ncnc3cc(OC)c(NC(=O)CCCC(=O)NO)cc23)c1", "≥ 7.00"],
  ["COCCOc1cc2ncnc(Nc3ccc(F)c(Cl)c3)c2cc1OCCCCCCC(=O)NO", "≥ 7.00"],
  ["COc1cc2ncnc(Nc3ccc(F)c(Cl)c3)c2cc1SCCCCC(=O)NO", "≥ 7.00"],
  ["C#Cc1cccc(Nc2ncnc3cc(OC)c(OCCCCCC(=O)NO)cc23)c1", "≥ 7.00"],
  ["COc1cc2ncnc(Nc3ccc(F)c(Cl)c3)c2cc1OCCCC(=O)NO", "≥ 7.00"],
  ["COc1cc2ncnc(Nc3ccc(F)c(Cl)c3)c2cc1OCCCCC(=O)NO", "≥ 7.00"],
  ["C#Cc1cccc(Nc2ncnc3ccc(OCCCCC(=O)NO)cc23)c1", "≥ 7.00"],
  ["COc1cc2ncnc(Nc3ccc(OCc4cccc(F)c4)c(Cl)c3)c2cc1OCCCCCCC(=O)NO", "≥ 7.00"],
  ["COc1cc2ncnc(Nc3ccc(F)c(Cl)c3)c2cc1SCCCCCCC(=O)NO", "≥ 7.00"],
  ["COc1cc2ncnc(Nc3ccc(F)c(Cl)c3)c2cc1NC(=O)CCCCCCC(=O)NO", "≥ 7.00"],
  ["COc1cc2ncnc(Nc3ccc(F)c(Cl)c3)c2cc1OCCOc1ccc(C(=O)NO)cc1", "≥ 7.00"],
  ["COCCOc1cc2ncnc(Nc3ccc(F)c(Cl)c3)c2cc1NC(=O)CCCC(=O)NO", "≥ 7.00"],
  ["O=C(COc1ccc2ncnc(Nc3ccc(F)c(Cl)c3)c2c1)NO", "≥ 7.00"],
  ["COCCOc1cc2c(Nc3ccc(F)c(Cl)c3)ncnc2cc1OCCCCCCC(=O)NO", "≥ 7.00"],
  ["C#Cc1cccc(Nc2ncnc3cc(OC)c(NC(=O)CCCCCCC(=O)NO)cc23)c1", "≥ 7.00"]
]}
